test system: M14 melanoma; assay: NCI tumour cell line growth inhibition, 48 h
TGI reference
The figure you give is taken to be in µM; do not add the unit.

Look over these answered cases.
COc1cc2c(cc1NC(=O)C(Cl)Cl)-c1ccc(NC(=O)C(Cl)Cl)cc1C2	16.5
COc1ccc(/C=N\Nc2nc(SCC(C)C)nc(-c3ccc(OC)cc3)c2C#N)cc1	92.2
O=c1ccc2ccccc2c2ccccc12	6.52

// query Find TGI (M14 melanoma) for the entry CCC(=O)C(CCN1CCC(N2C(=O)C(CCC#N)c3ccccc32)CC1)(c1ccccc1)c1ccccc1 (stereo unspecified)
// result 22.2

// query Further, for COCCOCOC(C)(C)[C@H](CCO)O[Si](c1ccccc1)(c1ccccc1)C(C)(C)C ?
// result 21.8

// query Further, for COC(=O)c1ccc(C=C(C#N)C#N)cc1 ?
// result 32.7

// query Further, for Cc1nnc(N/N=C(/C(=O)C(C#N)c2ccc(Cl)cc2)C(C#N)c2ccc(Cl)cc2)n1N (stereo unspecified) ?
// result 38.7

// query Further, for COc1ccc2c(c1)C(=O)c1c-2c(=O)n(CCCN(C)C)c2cc(OC)c(OC)cc12 ?
// result 21.7

// query Further, for O=C(c1ccco1)c1c(C(F)(F)F)n([O-])c2cc(F)c(F)cc2[n+]1=O ?
// result 0.528

// query Further, for COC1=C(OC)[C@]2(OC)c3c(O)c(OC)c4c(c3O[C@@]23O[C@@H](c2ccccc2)CC=C3C1=O)[C@@H](OC)C[C@H](c1ccccc1)O4 ?
// result 1.86

// query Further, for COc1cc(-c2ncn(/C=C\c3nnco3)n2)cc(C(F)(F)F)c1 ?
// result 37.2

---

test system: SK-MEL-28 melanoma; assay: NCI tumour cell line growth inhibition, 48 h
value type: GI50

Look over these answered cases.
CC1SC(c2ccc(Cl)cc2)N(CCc2cccs2)C1=O (stereo not given)	1.58 µM
CC(C)N(Cc1ccc(F)cc1)c1ccc(CO)c(Cl)c1	14 µM
COC(=O)c1cc([N+](=O)[O-])cc([N+](=O)[O-])c1Cl	1.94 µM
N#Cc1cc2c(cc1Cl)Sc1nnc(Nc3cccc4ccccc34)n1S2(=O)=O	5.05 µM
Nc1nc(-c2ccc(Cl)cc2)nc2c1sc(=S)n2-c1ccccc1	5.22 µM

// query Fill blank: measured GI50 of the compound O=c1[nH]c2ccccc2n1C1CCN(CCCC(c2ccc(F)cc2)c2ccc(F)cc2)CC1 is ____.
// result 1.61 µM

// query Further, for C=C1C(=O)O[C@H]2[C@H]1CC/C(COC(=O)NCc1c[nH]c3ccc(F)cc13)=C\CC[C@@]1(C)O[C@@H]21 ?
// result 1.63 µM

// query Further, for COc1cc(C(=O)/C=C/c2c(C(F)(F)F)nc3ccccn23)cc(OC)c1OC ?
// result 1.93 µM

// query Further, for CC(=O)[CH-]C(C)=O.CC(=O)[CH-]C(C)=O.CC(=O)[CH-]C(C)=O.[Ga+3] ?
// result > 100 µM

// query Further, for CSC1=Nc2c(c(C)c(-c3ccccc3)n2COC(CO)CO)C2=NC(=O)CN12 ?
// result > 100 µM

// query Further, for COc1ccc(C2CC(c3ccc(N(C)C)cc3)=NN2c2ccc(S(N)(=O)=O)cc2)cc1 (stereo not given) ?
// result 4.81 µM

// query Further, for Cc1ccc(-n2c(-c3cc4c([nH]c5ccccc54)c(-c4cccc(O)c4)n3)n[nH]c2=S)cc1 ?
// result 0.628 µM

// query Further, for CN1CCCC1c1cccnc1.O=C(O)c1ccccc1O.O=C([O-])c1ccccc1[OH2+].O=C([O-])c1ccccc1[OH2+].[Mn+2] (stereo not given) ?
// result > 100 µM

// query Further, for Clc1ccc([I+]c2ccc(Cl)cc2Cl)c(Cl)c1 ?
// result 7.14 µM

// query Further, for c1ccc2c(CNCCN3CCNCC3)c3ccccc3c(CNCCN3CCNCC3)c2c1 ?
// result 42.8 µM

// query Further, for COC1=C(OC)[C@]2(OC)c3c(O)c(OC)c4c(c3O[C@@]23O[C@@H](c2ccccc2)CC=C3C1=O)[C@@H](OC)C[C@H](c1ccccc1)O4 ?
// result 0.591 µM

// query Further, for O=C1/C(=C/c2ccccc2O)N=C(c2ccccc2)N1c1cc(C(F)(F)F)ccc1Cl ?
// result > 100 µM

// query Further, for CC(=O)N(O)c1ccc(/C=C/c2ccccc2)cc1 ?
// result 9.39 µM

// query Further, for CN(C)CCCn1c2c(c3cc4c(cc3c1=O)OCO4)C(=O)c1ccccc1-2 ?
// result 4.68 µM

// query Further, for C/C(=N\NC(=S)N1CCN(c2ccccn2)CC1)c1ncccn1 ?
// result 0.566 µM

---

TGI reference
tested on: DMS 114 small cell lung; assay: NCI tumour cell line growth inhibition, 48 h

COC(=O)CCC(NC(=S)N/N=C(\C)c1cnccn1)C(=O)OC (centres undefined)	54.2 µM
c1ccc2cc3c(cc2c1)OP1(Oc2cccc4cccnc24)(O3)Oc2cc3ccccc3cc2O1	> 23 µM

// query Fill blank: measured TGI of the molecule CC(=O)CC(=O)CCC(=O)Nc1cccc(C(F)(F)F)c1 is ____.
// result > 100 µM

// query Further, for COc1c(OC(C)C)cc2cc(O)c(C(=O)NC3Cc4ccc(c(Cl)n4)O[C@@H]4C=C5C#C/C(=C\C#CC6OC56C4OC4CC(C)(O)C(O)C(C)O4)C(OC4CC(O)C(N(C)C)C(C)O4)COC3=O)cc2c1OC (some centres undefined) ?
// result 10.4 µg/mL

---

test system: COLO 205 colon; test: NCI tumour cell line growth inhibition, 48 h; in the data active means GI50 below about 0.43 µM; inactive means the rest
# valid calls are active, inactive; nothing else

// below: answered compounds
C[C@@H](NC(=O)c1ccc(F)cc1)c1ccc2c(c1)CCN2C(=O)C1CCOCC1	inactive
C/C(=N\NC(=S)N1CCN(c2ccccn2)CC1)c1ncccn1	active
Cc1ccc(Cl)cc1-n1c(C)nc2c(cnn2-c2ccnc3c(C(F)(F)F)cccc23)c1=O	inactive
Clc1ccc([I+]c2ccc(Cl)cc2Cl)c(Cl)c1	inactive

Turning to the following compound.
// query Which outcome did this test record for the compound O=C(c1ccco1)c1c(C(F)(F)F)n([O-])c2cc(F)c(F)cc2[n+]1=O ?
// result active

---

TGI reference
tested on: SK-MEL-28 melanoma; assay: NCI tumour cell line growth inhibition, 48 h

CC(=O)N(CC(=O)C(=O)NNc1ccoc1)c1ccc(Cl)cc1	> 100 µM

// query Fill blank: measured TGI of the compound c1cncc(CSc2ncnc3nc[nH]c23)c1 is ____.
// result > 100 µM

// query Further, for CN1CCC/C1=C1/C(=O)N(c2ccccc2)N=C1c1ccc[nH]1 ?
// result > 100 µM

// query Further, for COC1=C(OC)[C@]2(OC)c3c(O)c(OC)c4c(c3O[C@@]23O[C@@H](c2ccccc2)CC=C3C1=O)[C@@H](OC)C[C@H](c1ccccc1)O4 ?
// result 1.49 µM

// query Further, for Cc1ccc(S(=O)(=O)N2CC(CCN)c3ccccc32)cc1 (configuration not stated) ?
// result 34.7 µM

// query Further, for CCn1ccnc1C(=O)/C=C/c1ccc(CC(=O)Nc2ccc(F)cc2)cc1 ?
// result > 16.7 µM

// query Further, for COc1cc(C(=O)O)c(-c2cc3c(cc2C=O)OCO3)c(OC)c1OC ?
// result > 10 µM

// query Further, for COC(=O)CCC(NC(=S)N/N=C(\C)c1cnccn1)C(=O)OC (configuration not stated) ?
// result > 100 µM

// query Further, for COC1=C2CC(C)CC(OC)C(OC(=O)CCCN)C(C)/C=C(\C)C(OC(N)=O)C(OC)/C=C\C=C(/C)C(=O)NC(=CC1=O)C2=O (configuration not stated) ?
// result 23.7 µM

// query Further, for COc1cc(C(=O)C2CC3(CCC2(O)c2cc(OC)c(OC)c(OC)c2)CC(=O)Nc2ccccc2C3=O)cc(OC)c1OC (configuration not stated) ?
// result > 100 µM

// query Further, for Cc1cc2c(c(=O)o1)C1=S(SC(c3ccccc3)=C1)S2 (configuration not stated) ?
// result > 100 µM

// query Further, for Cc1ccc(S(=O)(=O)NC(=O)OC23COCN2COC3)cc1 ?
// result > 100 µM

// query Further, for C=C1C(=O)O[C@H]2[C@H]1CC/C(COC(=O)NCc1c[nH]c3ccc(F)cc13)=C\CC[C@@]1(C)O[C@@H]21 ?
// result 3.24 µM

// query Further, for Cc1c(C2=NN=C(N=Nc3c(O)cccc3O)/C2=C/c2ccccc2)c(=O)n(-c2ccccc2)n1C ?
// result > 100 µM

// query Further, for Cc1ccc(/N=N/C(=NNC(=O)c2ccc(C)cc2)c2ccc(N(C)C)cc2)cc1 ?
// result > 100 µM

// query Further, for NCc1ccc(-c2nc(-c3ccc(Cl)c(O)c3)c(-c3ccncc3)[nH]2)cc1 ?
// result > 25 µM

// query Further, for O=c1cc(CNC2CC3CCC2C3)[nH]c(=O)[nH]1 (configuration not stated) ?
// result > 100 µM

// query Further, for C=CCN(CC=C)C(=O)[C@H](CC)[C@@H]1CC[C@@H](C)[C@@H]([C@H](C)[C@@H](O)[C@@H](C)C(=O)[C@H](CC)C2O[C@]3(C=C[C@@H](O)[C@]4(CC[C@@](C)([C@H]5CC[C@](O)(CC)[C@H](C)O5)O4)O3)[C@H](C)C[C@@H]2C)O1 (some centres not stated) ?
// result 21.6 µM

// query Further, for O=C(/C=C(\Nc1ccccc1O)c1ccc(Br)cc1)C(Cl)(Cl)Cl ?
// result 24.6 µM

// query Further, for COc1ccc(COc2cc3oc(=O)c4cc(C(C)O)ccc4c3cc2OC)cc1 (configuration not stated) ?
// result > 91.7 µM

// query Further, for O=C1/C(=C/c2ccccc2O)N=C(c2ccccc2)N1c1cc(C(F)(F)F)ccc1Cl ?
// result > 100 µM
